Here, each record is paired with measured viability, T/C data.
System: 695427-040-R-J1-PDC complex spheroid viability
Experimental details: Anticancer human tumor 695427-040-R-J1-PDC patient-derived colon adenocarcinoma cell line growth inhibition [POLQ]
Experimental setup: second compound 0.1 µM; first compound 0.316 µM; stronger effect = lower value
Report only the number, with the unit % understood.

Lab book: viability, T/C of CCc1cc2c(N3CCc4c(cc(Cn5ccnc5)cc4-c4cn(C)nc4C(F)(F)F)C3=O)cc(C)nc2c(OC)n1 + Nc1ccc(C#CCN(C(=O)Cc2ncc(C(F)(F)F)cc2C(F)(F)F)c2ccc(F)cc2)nn1 noted as 103

C=CCn1c(=O)c2cnc(Nc3ccc(N4CCN(C)CC4)cc3)nc2n1-c1cccc(C(C)(C)O)n1 + Nc1ccc(C#CCN(C(=O)Cc2ncc(C(F)(F)F)cc2C(F)(F)F)c2ccc(F)cc2)nn1 yielded viability, T/C of 99.9

Value of measured viability, T/C for the entry Nc1ccn(C2OC(CO)C(O)C2(F)F)c(=O)n1 (stereo unspecified) + Cc1cccc(N(C)C(=O)C2C(O)CCN2c2nc(C)cc(C(F)(F)F)c2C#N)c1 : 77.4

---

System: 695427-040-R-J1-PDC complex spheroid viability
Experimental details: Anticancer human tumor 695427-040-R-J1-PDC cell line growth inhibition [POLQ];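 note: spheroids exposed to compounds for seven days; 100% = DMSO vehicle control viability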
Experimental setup: second compound 0.0316 µM; first compound 3.16 µM; stronger effect = lower value
Reported endpoint: viability, T/C (%)
Lab book: enter the figure in %, no units written.

Compound	Reported endpoint	Units text	Endpoint value
COc1cccc2c1C(=O)c1c(O)c3c(c(O)c1C2=O)CC(O)(C(=O)CO)CC3OC1CC(N)C(O)C(C)O1 (stereo not given) + Nc1ccc(C#CCN(C(=O)Cc2ncc(C(F)(F)F)cc2C(F)(F)F)c2ccc(F)cc2)nn1	viability, T/C	%	79.6

In plain terms, CC1COCCN1c1cc(-c2ccnn2C)c2ccnc(-c3ccn[nH]3)c2n1 (stereo not given) + Nc1ccc(C#CCN(C(=O)Cc2ncc(C(F)(F)F)cc2C(F)(F)F)c2ccc(F)cc2)nn1 has a documented viability, T/C of 61.6

# viability, T/C of CC(C)n1c(=O)n(C)c2cnc3cc(F)c(-c4ccc(OCCCN5CCCCC5)nc4)cc3c21 + COC1C(OC(N)=O)C(O)C(Oc2ccc3c(O)c(NC(=O)c4ccc(O)c(CC=C(C)C)c4)c(=O)oc3c2C)OC1(C)C = 110

Data point: CCc1cc2c(N3CCc4c(cc(Cn5ccnc5)cc4-c4cn(C)nc4C(F)(F)F)C3=O)ccnc2c(OC)n1 + Nc1ccc(C#CCN(C(=O)Cc2ncc(C(F)(F)F)cc2C(F)(F)F)c2ccc(F)cc2)nn1 ; viability, T/C = 105

Value of measured viability, T/C for the entry C#Cc1c(F)ccc2cc(O)cc(-c3ncc4c(N5CC6CCC(C5)N6)nc(OCC56CCCN5CC(F)C6)nc4c3F)c12 (stereo not given) + COC1C(OC(N)=O)C(O)C(Oc2ccc3c(O)c(NC(=O)c4ccc(O)c(CC=C(C)C)c4)c(=O)oc3c2C)OC1(C)C : 97.3

---

Test system: 695427-040-R-J1-PDC complex spheroid viability
Experimental details: Anticancer human tumor 695427-040-R-J1-PDC cell line growth inhibition [POLQ];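 note: spheroids exposed to compounds for seven days; 100% = DMSO vehicle control viability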
Experimental setup: second compound 0.316 µM; first compound 3.16 µM; stronger effect = lower value
Reported endpoint: viability, T/C (%)
Report as a plain number; the unit % is understood.

Record excerpt, results attached:
Compound	Assayed target	viability, T/C / %
COc1cc2cc(C(=O)CCC(=O)O)sc2cc1OC + Nc1ccc(C#CCN(C(=O)Cc2ncc(C(F)(F)F)cc2C(F)(F)F)c2ccc(F)cc2)nn1	695427-040-R-J1-PDC complex spheroid viability	105
Nc1ccn(C2OC(CO)C(O)C2(F)F)c(=O)n1 (configuration not stated) + Cc1cccc(N(C)C(=O)C2C(O)CCN2c2nc(C)cc(C(F)(F)F)c2C#N)c1	695427-040-R-J1-PDC complex spheroid viability	66.3
COc1cccc2c1C(=O)c1c(O)c3c(c(O)c1C2=O)CC(O)(C(=O)CO)CC3OC1CC(N)C(O)C(C)O1 (configuration not stated) + Cc1cccc(N(C)C(=O)C2C(O)CCN2c2nc(C)cc(C(F)(F)F)c2C#N)c1	695427-040-R-J1-PDC complex spheroid viability	78.6

// viability, T/C lookup, compound = CC1COCCN1c1cc(C2(S(C)(=N)=O)CC2)nc(-c2ccnc3[nH]ccc23)n1 (configuration not stated) + Nc1ccc(C#CCN(C(=O)Cc2ncc(C(F)(F)F)cc2C(F)(F)F)c2ccc(F)cc2)nn1 , result: 99.9

Please fill in: viability, T/C reported for C#Cc1c(F)ccc2cc(O)cc(-c3ncc4c(N5CC6CCC(C5)N6)nc(OCC56CCCN5CC(F)C6)nc4c3F)c12 (configuration not stated) + Cc1cccc(N(C)C(=O)C2C(O)CCN2c2nc(C)cc(C(F)(F)F)c2C#N)c1 = 90.8

Form: compound = O=c1[nH]cc(F)c(=O)[nH]1 + Cc1cccc(N(C)C(=O)C2C(O)CCN2c2nc(C)cc(C(F)(F)F)c2C#N)c1 ; viability, T/C = 101

Entry CCc1cc2c(N3CCc4c(cc(Cn5ccnc5)cc4-c4cn(C)nc4C(F)(F)F)C3=O)ccnc2c(OC)n1 + Cc1cccc(N(C)C(=O)C2C(O)CCN2c2nc(C)cc(C(F)(F)F)c2C#N)c1 ; viability, T/C = 109

---

Tested on: 695427-040-R-J1-PDC complex spheroid viability
Experimental details: Anticancer human tumor 695427-040-R-J1-PDC cell line growth inhibition [POLQ];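 note: spheroids exposed to compounds for seven days; 100% = DMSO vehicle control viability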
Experimental setup: second compound 0.0316 µM; first compound 10 µM; stronger effect = lower value
viability, T/C listing for selected compounds.
Output spec: scalar in %, unitless text.

Compound	Endpoint value
CC1COCCN1c1cc(-c2ccnn2C)c2ccnc(-c3ccn[nH]3)c2n1 (stereo unspecified) + COC1C(OC(N)=O)C(O)C(Oc2ccc3c(O)c(NC(=O)c4ccc(O)c(CC=C(C)C)c4)c(=O)oc3c2C)OC1(C)C	44.8

Form field, viability, T/C with 695427-040-R-J1-PDC complex spheroid viability, item COc1cc2cc(C(=O)CCC(=O)O)sc2cc1OC + Nc1ccc(C#CCN(C(=O)Cc2ncc(C(F)(F)F)cc2C(F)(F)F)c2ccc(F)cc2)nn1 : 92.1

Summary: COc1cc(C2c3cc4c(cc3C(OC3OC5COC(C)OC5C(O)C3O)C3COC(=O)C23)OCO4)cc(OC)c1O (stereo unspecified) + Cc1cccc(N(C)C(=O)C2C(O)CCN2c2nc(C)cc(C(F)(F)F)c2C#N)c1 , 695427-040-R-J1-PDC complex spheroid viability, viability, T/C = 81.3

Measured viability, T/C for this entry COc1cc2cc(C(=O)CCC(=O)O)sc2cc1OC + COC1C(OC(N)=O)C(O)C(Oc2ccc3c(O)c(NC(=O)c4ccc(O)c(CC=C(C)C)c4)c(=O)oc3c2C)OC1(C)C on 695427-040-R-J1-PDC complex spheroid viability: 107

Field viability, T/C (695427-040-R-J1-PDC complex spheroid viability), entry COc1ccc([C@@H](O)c2cc(-c3ncnc4cc(N5CCOCC5)ccc34)c(F)cc2Cl)nn1 + COC1C(OC(N)=O)C(O)C(Oc2ccc3c(O)c(NC(=O)c4ccc(O)c(CC=C(C)C)c4)c(=O)oc3c2C)OC1(C)C : 56

Param item: O=c1[nH]cc(F)c(=O)[nH]1 + Nc1ccc(C#CCN(C(=O)Cc2ncc(C(F)(F)F)cc2C(F)(F)F)c2ccc(F)cc2)nn1 ; param system: 695427-040-R-J1-PDC complex spheroid viability; output viability, T/C: 106

---

Some molecules, each annotated with its measured viability, T/C.
Test system: 695427-040-R-J1-PDC complex spheroid viability
Experimental details: Anticancer human tumor 695427-040-R-J1-PDC cell line growth inhibition [POLQ];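 note: spheroids exposed to compounds for seven days; 100% = DMSO vehicle control viability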
Experimental setup: second compound 10 µM; first compound 0.316 µM; stronger effect = lower value
Experimental: Multicellular complex tumor spheroid response to Polymerase (POL) inhibitors (novobiocin, ART-558, RP6685) in combination with a variety of drugs and investigational agents in selected tumor cell lines The POL inhibitors (novobiocin, ART-558, and RP6685) were evaluated both individually and in combination with standard of care and investigational anticancer small molecules within a complex spheroid model of solid tumors. . […]

Reference set, count: 4
Molecule	viability, T/C
C#Cc1c(F)ccc2cc(O)cc(-c3ncc4c(N5CC6CCC(C5)N6)nc(OCC56CCCN5CC(F)C6)nc4c3F)c12 (stereo not given) + Cc1cccc(N(C)C(=O)C2C(O)CCN2c2nc(C)cc(C(F)(F)F)c2C#N)c1	85.4%
COc1cccc(OCCCN)c1-c1cc(Nc2cnc(C#N)cn2)n[nH]1 + COC1C(OC(N)=O)C(O)C(Oc2ccc3c(O)c(NC(=O)c4ccc(O)c(CC=C(C)C)c4)c(=O)oc3c2C)OC1(C)C	55.2%
COc1cccc(OCCCN)c1-c1cc(Nc2cnc(C#N)cn2)n[nH]1 + Cc1cccc(N(C)C(=O)C2C(O)CCN2c2nc(C)cc(C(F)(F)F)c2C#N)c1	48.8%
COc1cccc2c1C(=O)c1c(O)c3c(c(O)c1C2=O)CC(O)(C(=O)CO)CC3OC1CC(N)C(O)C(C)O1 (stereo not given) + Cc1cccc(N(C)C(=O)C2C(O)CCN2c2nc(C)cc(C(F)(F)F)c2C#N)c1	73.3%

Switching to the query record.
Per the records, this molecule ( CCc1cc2c(N3CCc4c(cc(Cn5ccnc5)cc4-c4cn(C)nc4C(F)(F)F)C3=O)cc(C)nc2c(OC)n1 + Cc1cccc(N(C)C(=O)C2C(O)CCN2c2nc(C)cc(C(F)(F)F)c2C#N)c1 ) has viability, T/C equal to 87.8%

Measured values drawn from PubChem BioAssay AID1963840 for this set.
